studySystem: Bet bromodomain protein (BRD4) (Homo sapiens, UniProt O60885)
testMethodNotes: Bet bromodomain TR-FRET assay
runParameters: 300 nM acetyl histone peptide substrate, results given as Group A/B/C
Recorded measurements of IC50, one per entry
endpointName: IC50

> print(dat)
                                  testsmiles  endpointname    observedvalue
 1  CCC(=O)N1CCC(CN2C(=O)COc3cc(-c4c(C)noc4C)c(OC)cc32)CC1          IC50        ≤ 1000 nM
 2  COc1cc2c(cc1-c1c(C)noc1C)OCC(=O)N2CC1CCNCC1          IC50        > 3000 nM
 3  COc1cc2c(cc1-c1c(C)noc1C)cc(C1CCCCC1)c(=O)n2Cc1cccnc1          IC50        ≤ 1000 nM
 4  COc1cc2c(cc1-c1c(C)noc1C)cc(C)c(=O)n2Cc1ccccn1          IC50        ≤ 1000 nM
 5  COc1cc2c(cc1-c1c(C)noc1C)cc(CO)c(=O)n2Cc1ccccn1          IC50        ≤ 1000 nM
 6  COc1cc2c(cc1-c1c(C)noc1C)cc(C)c(=O)n2CCc1ccc(Cl)cc1          IC50        ≤ 1000 nM
 7  COc1cc2c(cc1-c1c(C)noc1C)OCC(=O)N2CC1CCOCC1          IC50        ≤ 1000 nM
 8  Cc1noc(C)c1-c1cc2ccc(=O)n(Cc3ccccn3)c2cc1OCC(F)(F)F          IC50        ≤ 1000 nM
 9  COc1cc2c(ccc(=O)n2Cc2ccccn2)cc1-n1c(C)nnc1C          IC50        > 3000 nM
10  COc1cc2c(cc1-c1c(C)noc1C)C(=O)C(C)(C)C(=O)N2Cc1ccccn1          IC50  1000 to 3000 nM
11  COc1cc2c(ccc(=O)n2Cc2ccccn2)cc1-c1c(C)n[nH]c1C          IC50        ≤ 1000 nM
12  COc1cc2c(cc1-c1c(C)noc1C)OCC(=O)N2Cc1ccc(C)nc1          IC50        ≤ 1000 nM
